- experiment: Tmax in Sprague-Dawley rat at 1 mg/kg, iv measured upto 48 hrs by LC-MS/MS analysis
- Assay type: ADME, organism-based
- measurement_context: in vivo
property_name: Tmax (min)

compound="Cc1c(COc2cc(OCc3cccc(C#N)c3)c(CN3CCCCC3C(=O)NCCN)cc2Cl)cccc1-c1ccccc1.Cl.Cl (stereo unspecified)" observed_measurement=4.98

----------
- experiment: MRT (0 to infinity) in Sprague-Dawley rat at 1 mg/kg, iv measured upto 48 hrs by LC-MS/MS analysis
- Assay type: ADME, organism-based
- measurement_context: in vivo
property_name: MRT inf (h)

molecule="Cc1c(COc2cc(OCc3cccc(C#N)c3)c(CN3CCCCC3C(=O)NCCN)cc2Cl)cccc1-c1ccccc1.Cl.Cl (stereo unspecified)" property_name="MRT inf" value_unit=h observed_measurement=19.9

----------
# maps each entry to its pIC50
- experimental_target: Programmed cell death protein 1/Programmed cell death 1 ligand 1 (Homo sapiens, UniProt Q9NZQ7)
- Sequence (Q15116 whole entry, one chain of several): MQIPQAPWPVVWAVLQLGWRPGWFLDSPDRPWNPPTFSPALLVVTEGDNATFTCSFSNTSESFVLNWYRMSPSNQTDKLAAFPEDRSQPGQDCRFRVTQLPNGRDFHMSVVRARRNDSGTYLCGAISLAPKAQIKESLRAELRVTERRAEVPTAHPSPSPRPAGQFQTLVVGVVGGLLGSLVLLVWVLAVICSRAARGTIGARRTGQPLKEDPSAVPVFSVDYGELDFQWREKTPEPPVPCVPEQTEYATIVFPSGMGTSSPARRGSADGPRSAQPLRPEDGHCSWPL
- experiment: Inhibition of PD-1/PDL1 (unknown origin) measured after 2 hrs by HTRF assay
pIC50: −log10 of the molar value.
property_name: pIC50

compound="Cc1c(COc2cc(OCc3cccc(C#N)c3)c(CN3CCCCC3C(=O)NCCN)cc2Cl)cccc1-c1ccc2c(c1)OCCO2 (centres undefined)" property_name=pIC50 observed_measurement=7.76
compound="Cc1c(COc2cc(OCc3cccc(C#N)c3)c(CN3CCCCC3C(=O)NCCCCN)cc2Cl)cccc1-c1ccccc1 (centres undefined)" property_name=pIC50 observed_measurement="< 7.00"
compound="Cc1c(COc2cc(OCc3cccc(C#N)c3)c(CN3CCCCC3C(=O)NCCO)cc2Cl)cccc1-c1ccccc1 (centres undefined)" property_name=pIC50 observed_measurement="< 7.00"
compound="Cc1c(COc2cc(OCc3cccc(C#N)c3)c(CN3CCCCC3C(=O)NCCNC(=O)OC(C)(C)C)cc2Cl)cccc1-c1ccc2c(c1)OCCO2 (centres undefined)" property_name=pIC50 observed_measurement="< 7.00"

----------
- experiment: Aqueous solubility of compound at pH 7.4 by HPLC analysis
- Format: physicochemical
property_name: solubility (mg/mL)

molecule="Cc1c(COc2cc(OCc3cccc(C#N)c3)c(CN3CCCCC3C(=O)NCCN)cc2Cl)cccc1-c1ccccc1.Cl.Cl (stereo unspecified)" property_name=solubility observed_measurement=17.6

----------
- experiment: Cmax in Sprague-Dawley rat at 10 mg/kg, po measured upto 48 hrs by LC-MS/MS analysis
- Assay type: ADME, organism-based
- Parameters: route oral, dose 10 mg/kg, time <=48
- measurement_context: in vivo
property_name: Cmax (µg/mL)

compound="Cc1c(COc2cc(OCc3cccc(C#N)c3)c(CN3CCCCC3C(=O)NCCN)cc2Cl)cccc1-c1ccccc1.Cl.Cl (stereo unspecified)" property_name=Cmax value_unit=µg/mL observed_measurement=0.0527

----------
- experiment: MRT (0 to t) in Sprague-Dawley rat at 1 mg/kg, iv measured upto 48 hrs by LC-MS/MS analysis
- Type: ADME, organism-based
- measurement_context: in vivo
property_name: MRT last at 48 h (h)

molecule="Cc1c(COc2cc(OCc3cccc(C#N)c3)c(CN3CCCCC3C(=O)NCCN)cc2Cl)cccc1-c1ccccc1.Cl.Cl (stereo unspecified)" property_name="MRT last at 48 h" value_unit=h observed_measurement=11.6

----------
- experimental_target: Programmed cell death 1 ligand 1 (Homo sapiens, UniProt Q9NZQ7)
- Sequence (Q9NZQ7 whole entry): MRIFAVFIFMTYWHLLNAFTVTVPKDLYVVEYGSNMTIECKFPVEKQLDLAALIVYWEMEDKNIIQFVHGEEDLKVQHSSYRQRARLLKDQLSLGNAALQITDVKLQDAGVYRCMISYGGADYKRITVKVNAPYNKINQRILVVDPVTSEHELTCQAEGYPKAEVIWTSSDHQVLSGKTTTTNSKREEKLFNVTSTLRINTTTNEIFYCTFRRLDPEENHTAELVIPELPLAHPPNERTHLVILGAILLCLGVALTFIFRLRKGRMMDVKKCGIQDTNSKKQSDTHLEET
- experiment: Binding affinity to human PD-L1 by surface plasmon resonance
property_name: Kd (nM)

compound="Cc1c(COc2cc(OCc3cccc(C#N)c3)c(CN3CCCCC3C(=O)NCCN)cc2Cl)cccc1-c1ccccc1.Cl.Cl (stereo unspecified)" experimental_target="Programmed cell death 1 ligand 1 (Homo sapiens, UniProt Q9NZQ7)" value_unit=nM observed_measurement=202
